Where do the numbers come from? From patent US20220363718A1.

# system_under_test: T1, Biotinylated human TSLP (human, biotinylated)
# T1 construct: also called hTSLP; thymic stromal lymphopoietin
# measurement_notes: SPR, biotinylated hTSLP on streptavidin chip
*1 amine or outer side, *2 acyl side, *3 side chain or, on linkers, in order; H or OH if unused. Bridges are numbered along the chain shown (N, C = ends). Where no end group is shown, it is not given here. TATA = O=C(CC[*:1])N1CN(C(=O)CC[*:2])CN(C(=O)CC[*:3])C1
test_readout: Kd (nM)

P. CQWLEDCWRGXC (not fully specified; N-term acetyl; CQWLEDCWRG[4-BrPhe]C as printed; 3 Cys on TATA) [Example 26]
Q. ACDWVWEYDCWLPCA (linker 2-10-14 via TATA) [Example 197]
Smaller Kd value? Options are P and Q Reply briefly: the label of your chosen item.
P

1. CQWLEDCWRGXC (not fully specified; N-term acetyl; CQWLEDCWRG[3,4diFPhe]C as printed; 3 Cys on TATA) [Example 22]
2. CWWLXDCWRGXC (N-term acetyl; CWWL[3-ClPhe]DCWRG[4-FPhe]C as printed; 3 Cys on TATA) [Example 144]
Pick the one with the larger Kd: 1 vs 2 Reply briefly: the label of your chosen item.
2
(2: 860 nM, 1: 9.7 nM)
